Provenance of the data: paper PMC12864922

Molecular target: TDP-43 (Homo sapiens, UniProt Q13148 1-414)
Sequence (Q13148 whole entry): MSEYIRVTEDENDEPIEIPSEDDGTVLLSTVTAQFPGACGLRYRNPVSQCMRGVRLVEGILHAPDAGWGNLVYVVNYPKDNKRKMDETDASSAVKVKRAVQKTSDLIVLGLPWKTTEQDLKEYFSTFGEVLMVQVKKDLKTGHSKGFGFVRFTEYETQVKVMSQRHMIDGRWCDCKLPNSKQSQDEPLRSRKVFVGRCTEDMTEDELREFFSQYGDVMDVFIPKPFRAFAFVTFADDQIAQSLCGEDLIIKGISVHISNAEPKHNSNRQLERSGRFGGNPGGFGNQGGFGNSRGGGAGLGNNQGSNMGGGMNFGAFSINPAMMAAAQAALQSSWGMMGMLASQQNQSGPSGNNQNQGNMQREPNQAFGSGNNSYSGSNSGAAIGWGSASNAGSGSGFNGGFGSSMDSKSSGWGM
Assay: RNA Bind-n-Seq with designed 260-mer pool; 25 mM Tris-HCl, 150 mM KCl, 3 mM MgCl2, BSA (printed 500 mg/mL), 20 units/mL SUPERase IN; pH not stated; 500 nM RNA pool, 1 h, 4 C; TDP-43 5, 50, 500 nM; high values mean tight binding
Settings: protein: recombinant; tags: SBP (GST cleaved off with PreScission; pGEX-GST-SBP)
Over roughly 9,900 sequences, “r (bound/input frequency ratio)” has its median near 0.7; the highest 2% begin near 6.5. Many of the other results were omitted from the sample, so the highest values are more common in it than they were.
property label: binding signal

Requested read-out: binding signal. Entry: ENSMUSG00000058297.11|Spock2|185:189;193:206;215:226;240:246;255:260 (ssRNA) RNA: GGGAGUUCUACAGUCCGACGAUCGCUUCGAUAUCCGCAUGCUAUGAGGCGGGUGAGGCAGAUGAUGGAGGCUACAUCUGGUAGAUAGCCCUCGACGGCCUCGGCAGGCCAGGGUGCCGACGGCCAGAAAGACAGGCCAGAAGAGACCUGGACAACAGCAGGCAACUUAGCAAAUGGAUCCGGAAGUCAGUGCGGAGGACCCUGGCUCCAGUGGGGGAGGACUGGGGACACACGCUACACACAUACACACAUAUGAGAACACACACAUACAUGUGAGAUGUGACACACACAUGUGAGAACACACCUCUUGCGGUCGCACUAGUGUGGAAUUCUCGGGUGUCAAGG
2.53 R (bound/input frequency ratio)

Could you do the same for ENSMUSG00000061578.1449|Ksr2 (ssRNA) RNA: GGGAGUUCUACAGUCCGACGAUCGCUUCGAUAUCCGCAUGCUAGGUAUAUAAAUGGAUGGAUGGGUGAUGGAUGGGUAAAUGAAUGGAUAGGUAUGUGAAUGAAUGGAUGAUGGAUGAAUGGAUGGGUAGGUGGGUAGAUAGGUAUAUGAAUGAAUGGAUGAAUGGAUGGGUGAAUGGAUGGAUAGGUAUGUGAAUAAAUGGAUGGAUGGAUGGAUUGAUUUGUGAAUGAAUGGAUGAAUGGAUGGGUAGGUGGGUGGAUGCAUAGGCAAGUAGAUGAAUGAAUAUGUGGGUAGAAGGGUGAGCUCUUGCGGUCGCACUAGUGUGGAAUUCUCGGGUGUCAAGG , please?
3.93 R (bound/input frequency ratio)

Param item: ENSMUSG00000043670.52|Diras1|235:240 (ssRNA) RNA: GGGAGUUCUACAGUCCGACGAUCGCUUCGAUAUCCGCAUGCUACACCAGCCUACAGUAAGGUUGGGCUCCAUCCCUGCCUCUUCACACCUCCAUAGCUUCAUCCUUUGCAGACCUCUCCCUCUAUAUCUCUUUGCUCCCCCACCCCCAUUCUAUCUGCACCCCACAACCACACACUGGAGGUUUGAUCCCUGUGGAUCUGAAAACAGGGACCUGGCUAAGGAACUGCUCAUCCCAGUCAGGCCCAGAGAGGUUACCUUGCCUCUCCAUCUCUGUCCCACACACCCCAGCCAUGCCCACUGUCCCUCUUGCGGUCGCACUAGUGUGGAAUUCUCGGGUGUCAAGG
2.23 R (bound/input frequency ratio)

And for ENSMUSG00000029636.275|Wasf3|21:26 (ssRNA) RNA: GGGAGUUCUACAGUCCGACGAUCGCUUCGAUAUCCGCAUGCUAUCCCUACGCCCUGCUUUGGCCACACACUGAGUGCUCUGUGCUGCGCCAUGGCCAUCCUGGAGCCUGCGCACACGUGGCCGCUGCUGUGACUCGCUGUCCUUGGUAAUUGGUGAGAGGCUUUUUCUUUCUUUCUCAGUUCUGCUUUUCCACACUGAGACCCACCAUGUUGACAUCAUCCUCGCGACGUUGACAUUUGAGCCUUUUGUUCUGUCUCCCAUGUGCCCUGUAGAACCCAGCACUCAUGUUUGGCAAAACUUUUUCUCUUGCGGUCGCACUAGUGUGGAAUUCUCGGGUGUCAAGG ?
1.01 R (bound/input frequency ratio)

Now try ENSMUSG00000058297.11|Spock2 (ssRNA) RNA: GGGAGUUCUACAGUCCGACGAUCGCUUCGAUAUCCGCAUGCUAUGAGGCGGGUGAGGCAGAUGAUGGAGGCUACAUCUGGUAGAUAGCCCUCGACGGCCUCGGCAGGCCAGGGUGCCGACGGCCAGAAAGACAGGCCAGAAGAGACCUGGACAACAGCAGGCAACUUAGCAAAUGGAUCCGGAAGUCAGUGCGGAGGACCCUGGCUCCAGUGGGGGAGGACUGGGGAGUGUGGCUUGUGUGUAUGUGUGAUAUGAGAUGUGUGUGUAUGAUGUGAGAUGUGAGUGUGUGAUGUGAGAUGUGUGCUCUUGCGGUCGCACUAGUGUGGAAUUCUCGGGUGUCAAGG .
8.12 R (bound/input frequency ratio)

// next record ENSMUSG00000061578.722|Ksr2 (ssRNA) RNA: GGGAGUUCUACAGUCCGACGAUCGCUUCGAUAUCCGCAUGCUAUCUCUGAAUGUACGUGGGGGACUCCAACAGAUGUUGGGAGAAGACUCAAUAUGAGCAUACGGGGUCAUUGUUCAAUCCUGUAUCAAGACCUUGGAGUUGUCUAAGGCUGUGGGUUUUAAAUACCUGCUGCAGGCCUCCCAUCUCUGGCUCUUUGUUUCCACUCUGGCCCAAGUUUGAGUCUCCAUAUGGGCCCUUCCUGUCCUCAUGCCCUGCCUGUCUUCAUUCCACCCAUCCACCCUCCUAAGGAUUGGUCUUGUUCCCUCUUGCGGUCGCACUAGUGUGGAAUUCUCGGGUGUCAAGG
1.64 R (bound/input frequency ratio)

Same question, ENSMUSG00000058297.15|Spock2|161:165;169:182;191:202;216:222;231:240;246:260 (ssRNA) RNA: GGGAGUUCUACAGUCCGACGAUCGCUUCGAUAUCCGCAUGCUAAGGCUACAUCUGGUAGAUAGCCCUCGACGGCCUCGGCAGGCCAGGGUGCCGACGGCCAGAAAGACAGGCCAGAAGAGACCUGGACAACAGCAGGCAACUUAGCAAAUGGAUCCGGAAGUCAGUGCGGAGGACCCUGGCUCCAGUGGGGGAGGACUGGGGACACACGCUACACACAUACACACAUAUGAGAACACACACAUACAUGUGAGAUGUGACACACACAUGUGAGAACACACAUACUGAGAACACACACACACACACUCUUGCGGUCGCACUAGUGUGGAAUUCUCGGGUGUCAAGG this time
2.53 R (bound/input frequency ratio)
